pEC50 by entry:
- System: genotype 1b transient replicon
- protocol_details: 1b transient replicon (luciferase reporter)
- Format: cell-based, HCV
- measurement_context: Hepatitis C virus, HuH-7 cells, 5% FBS
pEC50: −log10 of the molar value.

Completed entries (count: 2):
COc1ccc2c(c1)nc(O[C@@H]1C[C@H]3C(=O)N[C@]4(C(=O)NS(=O)(=O)C5(C)CC5)C[C@H]4/C=C\CCCCC[C@H](NC(=O)c4ccn(C)n4)C(=O)N3C1)c1ccc(F)cc12	9.30 to 10.00
Cn1ccc(C(=O)N[C@H]2CCCCC/C=C\[C@@H]3C[C@@]3(C(=O)NS(=O)(=O)C3(C)CC3)NC(=O)[C@@H]3C[C@@H](Oc4nc5ccccc5c5cccc(F)c45)CN3C2=O)n1	9.30 to 10.00

// next item, pEC50 requested
Write down pEC50 measured for item Cn1ccc(C(=O)N[C@H]2CCCCC/C=C\[C@@H]3C[C@@]3(C(=O)NS(=O)(=O)C3(C)CC3)NC(=O)[C@@H]3C[C@@H](Oc4nc5cc(F)ccc5c5ccc(OC(F)(F)F)cc45)CN3C2=O)n1
9.30 to 10.00

====

Known EC50 of a selection of molecules
- Test system: genotype 3a NS3 gene in transient replicon
- protocol_details: 3a transient replicon (luciferase reporter)
- Assay type: cell-based, HCV
- measurement_context: Hepatitis C virus, Huh-7, read-out: 3a transient replicon (nM)

Check out these entries, answers already filled in.
Cn1ccc(C(=O)N[C@H]2CCCCC/C=C\[C@@H]3C[C@@]3(C(=O)NS(=O)(=O)C3(C)CC3)NC(=O)[C@@H]3C[C@@H](Oc4nc5cc(F)ccc5c5cc(OC(F)(F)F)ccc45)CN3C2=O)n1	> 1 nM
Cc1ccc(C(=O)N[C@H]2CCCCC/C=C\[C@@H]3C[C@@]3(C(=O)NS(=O)(=O)C3(C)CC3)NC(=O)[C@@H]3C[C@@H](Oc4nc5cc(F)ccc5c5ccccc45)CN3C2=O)o1	< 1 nM
Cn1ccc(C(=O)N[C@H]2CCCCC/C=C\[C@@H]3C[C@@]3(C(=O)NS(=O)(=O)C3(C)CC3)NC(=O)[C@@H]3C[C@@H](Oc4nc5cc(OC(F)(F)F)ccc5c5ccccc45)CN3C2=O)n1	0.1 to 0.5 nM

State its EC50: Cc1cc(C(=O)N[C@H]2CCCCC/C=C\[C@@H]3C[C@@]3(C(=O)NS(=O)(=O)C3(C)CC3)NC(=O)[C@@H]3C[C@@H](Oc4nc5cc(F)ccc5c5ccc(OC(F)(F)F)cc45)CN3C2=O)no1
> 1 nM

State its EC50: Cc1cc(C(=O)N[C@H]2CCCCC/C=C\[C@@H]3C[C@@]3(C(=O)NS(=O)(=O)C3(C)CC3)NC(=O)[C@@H]3C[C@@H](Oc4nc5ccccc5c5cc(F)ccc45)CN3C2=O)no1
> 1 nM

Respond only with EC50 recorded for Cc1cc(C(=O)N[C@H]2CCCCC/C=C\[C@@H]3C[C@@]3(C(=O)NS(=O)(=O)C3CC3)NC(=O)[C@@H]3C[C@@H](Oc4nc5cccc(F)c5c5ccccc45)CN3C2=O)no1
> 1 nM

Complete the entry with EC50 for CC1(S(=O)(=O)NC(=O)[C@@]23C[C@H]2/C=C\CCCCC[C@H](NC(=O)c2ccc(F)s2)C(=O)N2C[C@H](Oc4nc5cc(F)ccc5c5ccccc45)C[C@H]2C(=O)N3)CC1
> 1 nM

Check the records and state EC50 for CC1(S(=O)(=O)NC(=O)[C@@]23C[C@H]2/C=C\CCCCC[C@H](NC(=O)c2ccon2)C(=O)N2C[C@H](Oc4nc5ccccc5c5cc(F)ccc45)C[C@H]2C(=O)N3)CC1
0.5 to 1 nM
